EXPERIMENTAL_TARGET: HSA (Homo sapiens, UniProt P0DUB6)
Sequence (P0DUB6 16-511): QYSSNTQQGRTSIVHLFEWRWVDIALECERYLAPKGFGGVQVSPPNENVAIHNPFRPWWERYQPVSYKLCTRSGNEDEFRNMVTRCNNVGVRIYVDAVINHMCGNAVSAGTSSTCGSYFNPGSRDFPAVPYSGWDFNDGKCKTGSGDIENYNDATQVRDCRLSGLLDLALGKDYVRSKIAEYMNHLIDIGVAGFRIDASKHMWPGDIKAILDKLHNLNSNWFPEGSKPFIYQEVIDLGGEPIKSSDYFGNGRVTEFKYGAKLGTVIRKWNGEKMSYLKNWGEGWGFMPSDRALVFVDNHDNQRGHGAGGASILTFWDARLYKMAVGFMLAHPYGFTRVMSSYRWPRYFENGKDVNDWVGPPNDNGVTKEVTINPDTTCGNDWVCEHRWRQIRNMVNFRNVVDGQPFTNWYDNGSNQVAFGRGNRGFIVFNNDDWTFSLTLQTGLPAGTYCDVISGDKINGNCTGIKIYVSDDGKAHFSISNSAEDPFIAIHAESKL
PROTOCOL_TEXT: Binding mode (distribution of hydrolysis products) by HPLC
Type: biochemical
COND: share of product G2P
REPORTED_PROPERTY: Hydrolysis product G2P

Problem: Can you look up the measured Hydrolysis product G2P of O=[N+]([O-])c1ccc(O[C@H]2O[C@H](CO)[C@@H](O[C@H]3O[C@H](CO)[C@@H](O[C@H]4O[C@H](CO)[C@@H](O[C@H]5O[C@H](CO)[C@@H](O[C@H]6O[C@H](CO)[C@@H](O[C@H]7O[C@@H]8COC(c9ccccc9)O[C@H]8[C@H](O)[C@H]7O)[C@H](O)[C@H]6O)[C@H](O)[C@H]5O)[C@H](O)[C@H]4O)[C@H](O)[C@H]3O)[C@H](O)[C@H]2O)cc1 (stereo partly shown) for me?
Solution: 66%
